Could you please report measured TGI for the items listed next?
Test system: HL-60(TB) leukemia
protocol.text: NCI tumour cell line growth inhibition, 48 h
# value in µM; strip the unit string

Note TGI for the molecule shown: `O=C(CSCC(=O)N/N=C/c1cc(I)cc(I)c1O)N/N=C/c1cc(I)cc(I)c1O` 43.5

Provide only the value of recorded TGI for `COc1ccc(/C=C2\CN(C)Cc3c2nc(N)nc3-c2ccc(OC)cc2)cc1` 85.2

Give recorded TGI. COc1cc(/C=C/C(=O)OCC23CC[C@@]4(C(=O)O)CCC(C)[C@H](C)C4C2=CCC2[C@@]4(C)CC[C@H](O)C(C)(C)C4CC[C@]23C)ccc1O (some centres undefined) 51.1

Identify measured TGI corresponding to `O=S(=O)(Nc1ncccn1)c1ccc(N=Nc2ccc(O)c3ncccc23)cc1` 32.1
